- TARGET: Schistosoma mansoni thioredoxin glutathione reductase (TGR) (UniProt Q962Y6)
- TEST DETAILS: qHTS Assay for the Inhibitors of Schistosoma Mansoni Peroxiredoxins; further: nearly all actives have a fitted effect of over 60% in size
- TEST PARAMETERS: purified TGR, DTNB reduction, TNB absorbance 405 nm; series mostly up to 114 µM
The whole screen tested about 360,000 compounds, of which about 11,000 (3.1%) were called active. Roughly 4% stayed inconclusive and do not appear here. The call rests on the fitted dose curve; in most records, active means well fitted inhibition curve with a large enough effect; inconclusive means small, poorly fitted or top-dose-only effect; inactive means no such curve, though single readings can be large or run the other way. The full list was thinned out, with actives kept by preference.
Possible outcomes: 1 = active, -1 = inactive

1) COc1ccc(Cn2ccc3nc(C)c(C(=O)Nc4ccc(C)c(F)c4)cc3c2=O)cc1 = -1
2) O=C(Nc1ccc(F)cc1)C1CCN(C(=O)c2ccc([N+](=O)[O-])cc2)CC1 = -1
3) COC(=O)c1ccccc1NC(=O)c1ccc(COc2ccccc2Cl)o1 = -1
4) Cc1cccc(NC(=O)CSc2nc3c([nH]c4ccccc43)c(=O)n2-c2cc(C)cc(C)c2)c1 = -1
5) CSc1ccc(NC(=O)Cn2nnnc2-c2ccccc2F)cc1 = -1
6) COC(=O)c1cc(NC(=O)CN2CCC(C(N)=O)(N3CCCCC3)CC2)cc(C(=O)OC)c1 = -1
7) COc1cccc(Cn2c(CNS(=O)(=O)c3ccc(Cl)s3)nc3cccnc32)c1 = -1
8) CCOCCCn1c(SCC(=O)Nc2ccc(CC)cc2)nc2ccccc2c1=O = -1
9) O=C(/C=C/c1ccc(F)cc1)NC(=S)NNC(=O)c1cccnc1 = -1
10) NC(=O)C1(N2CCCCC2)CCN(C2CC(=O)N(Cc3ccc(N4CCCC4=O)cc3)C2=O)CC1 (stereo not given) = 1

====

- TARGET: Schistosoma mansoni thioredoxin glutathione reductase (TGR) (UniProt Q962Y6)
- TEST DETAILS: qHTS Assay for the Inhibitors of Schistosoma Mansoni Peroxiredoxins; further: nearly all actives have a fitted effect of over 60% in size
- TEST PARAMETERS: purified TGR, DTNB reduction, TNB absorbance 405 nm; series mostly up to 114 µM
- Source text: Schistosomiasis is a major neglected tropical disease that currently affects over 200 million. It is caused by different species of flatworms, such as Schistosoma mansoni. […] In addition, the fluorescence assay was also subject to fluorescence interference from compound library members. […] The assay followed the reduction of 5, 5'-dithiobis (2-nitrobenzoic acid) (DTNB) (Ellman's reagent) by NADPH and measured the increase in absorbance at 412 nm of the reaction product, TNB. […]
Among all 360,000 compounds or so, about 11,000 (3.1%) were called active. Inconclusive results (about 4%) are left out. Calls follow the shape of the dose curve; as a rule, active = well fitted inhibition curve with a large enough effect; inconclusive = small, poorly fitted or top-dose-only effect; inactive = no such curve, though single readings can be large or run the other way. Many of the other results were omitted from the sample, so actives are more common in it than they were.
Possible outcomes: YES for active, NO for inactive

1) COc1ccc(NC(=O)N2CCCn3nc(C)cc32)cc1OC = NO
2) COc1ccc(N=C2SC(C(=O)Nc3ccc(F)cc3)CC(=O)N2C)cc1 (stereo not given) = NO
3) CC[N+](C)(CC)CCC[n+]1c(-c2ccccc2)c2cc(N)ccc2c2ccc(N)cc21 = YES
4) CCCn1c2ccccc2c2cnn(CC(=O)NCC3CCN(Cc4ccc(C)cc4)CC3)c(=O)c21 = NO
5) COc1ccc(NC2CC(=O)N(C)C2=O)cc1 (stereo not given) = YES

====

- TARGET: Schistosoma mansoni thioredoxin glutathione reductase (TGR)
- TEST DETAILS: qHTS Assay for the Inhibitors of Schistosoma Mansoni Peroxiredoxins; further: nearly all actives have a fitted effect of over 60% in size
- TEST PARAMETERS: purified TGR, DTNB reduction, TNB absorbance 405 nm; series mostly up to 114 µM
In all, about 360,000 compounds went through this assay and about 11,000 (3.1%) were called active. Roughly 4% stayed inconclusive and do not appear here. The call rests on the fitted dose curve; in most records, active means well fitted inhibition curve with a large enough effect; inconclusive means small, poorly fitted or top-dose-only effect; inactive means no such curve, though single readings can be large or run the other way. This excerpt belongs to a sample that is enriched for actives.
Possible outcomes: YES for active, NO for inactive

1. O=C(CCc1cn(Cc2ccc(F)cc2)c2ccccc12)NC1CCCCC1 = NO
2. COC(=O)c1ccc(-c2c(-c3ccccc3)ncc3cc(OC)c(OC)cc23)cc1 = YES
3. Cc1nnc(SCC(N)=O)n1CC1CCCO1 (configuration not stated) = NO
4. COc1ccc(CCNC(=O)c2c3c(nc4ccccc24)C(=O)N(C2CCCCC2)C3)cc1OC = NO
5. CCCc1nn2c(=O)cc(COC(=O)c3ccc(NC(=O)COc4ccc(F)cc4)cc3)nc2s1 = NO
6. COc1ccc(CNc2nc(-c3ccc(Cl)cc3)nn2C(=O)c2ccccc2)cc1 = NO
7. CCOc1ccc(N(CC)S(=O)(=O)N2CCCC(C(=O)Nc3ccc(C(C)=O)cc3)C2)cc1 (configuration not stated) = NO
8. Cc1cccc(N(C)C(=O)CS(=O)(=O)c2cccc3nsnc23)c1 = NO
9. O=C(CC(n1cncn1)C(Cl)(Cl)Cl)c1ccc([N+](=O)[O-])cc1 (configuration not stated) = YES
10. Cc1ccc2[nH]c3c(=O)n(CC(=O)NC(C)C)ncc3c2c1 = NO
11. COc1ccc(NC(=O)/C(Cl)=C(/Cl)S(=O)Cc2ccc(C)cc2)cn1 (configuration not stated) = NO
12. CCCc1cc(=S)n2c([nH]c3ccccc32)c1C#N = YES
13. C=CCc1c(C)nc2cc(-c3ccccc3)[nH]n2c1=O = NO
14. CCC(C)n1c(-c2cc(OC)c(OC)c(OC)c2)nc2nc3ccccc3nc21 (configuration not stated) = NO
15. O=C(Nc1ccc2nc(SCC(=O)N3CCCc4ccccc43)sc2c1)c1ccc(Cl)cc1 = NO
16. OCc1cnc(SCc2ccc(F)cc2)n1Cc1ccc(F)cc1 = NO
17. COc1ccc(NC(=O)C(=O)NCc2ccco2)cc1 = NO
18. CNC(=S)N/N=C/c1ccc(N2CCOCC2)s1 = YES
19. CCn1cc2nc(SCc3ccccc3Cl)n(CCc3ccccc3)c(=O)c2n1 = NO
20. Cc1cccc(N2C(=O)CC(SC(N)=Nc3ccccc3)C2=O)c1 (configuration not stated) = NO
21. COc1ccc(Br)cc1C1CC(=O)Nc2c1c(C)nn2-c1nc(C)cc(C)n1 (configuration not stated) = NO
22. CCOC(=O)c1ccc(NC(=O)CC2C(=O)N(c3cccc(OC)c3)C(=O)N2C2CCCCC2)cc1 (configuration not stated) = NO
23. O=C(C1CCCN(S(=O)(=O)c2cccc3nonc23)C1)N1CCN(c2ccccc2F)CC1 (configuration not stated) = NO
24. COc1ccccc1NC(=O)c1cc(Cl)nnc1Cl = NO
25. O=C(c1ccccc1F)N1CCC(c2nc3c(nnn3Cc3cccc(F)c3)c(=O)[nH]2)CC1 = NO
26. CCOC(=O)C(NS(=O)(=O)c1ccc(C)cc1)(C(F)(F)F)P(=O)(OCC(C)C)OCC(C)C (configuration not stated) = YES
27. O=C(COc1ccc(Cl)cc1)Nc1ccc(-c2nc3cc(Cl)ccc3o2)c(O)c1 = NO
28. CC(C)(C)OC(=O)N1CCC(c2c(C(=O)N3CCN(c4cccc(Cl)c4)CC3)cnn2-c2cccc(Cl)c2)CC1 = NO
29. COc1cccc(C(=O)Nc2ccc(-c3cc(C(F)(F)F)nn3-c3ccccc3)cc2)c1 = NO
30. COC(=O)c1ccccc1SC1CC(=O)N(c2cccc(C)c2)C1=O (configuration not stated) = YES
31. Cc1c(NC(=O)Nc2ccc(F)c(Cl)c2)c(=O)n(-c2ccccc2)n1C = NO
32. COc1cccc(-c2n[nH]c3c2C(c2cccc(O)c2)N(C)C3=O)c1 (configuration not stated) = NO
33. COc1ccccc1NC(=O)c1c(Br)cnn1C = NO
34. Cc1cccc(OCC(=O)N(Cc2ccc(C(C)C)cc2)Cc2ccco2)c1C = NO
35. O=C(CSc1nnc(-c2ccco2)n1CC1CCCO1)c1ccccc1 (configuration not stated) = YES
36. O=C(CNS(=O)(=O)c1cccs1)N1CCN(c2ccccc2Cl)CC1 = NO
37. CNC(=O)NC(=O)CSc1nnc(-c2ccc(F)cc2)n1CC1CCCO1 (configuration not stated) = NO
38. COc1cc2c(cc1OC)C(COc1ccc(F)cc1)N(C(=O)c1ccccc1F)CC2 (configuration not stated) = NO
39. COc1ccc(CC(=O)N2CC(=O)Nc3ccc(Br)cc3C2c2ccc(F)cc2)cc1OC (configuration not stated) = NO
40. O=C(CSCc1cnn(-c2ccccc2)c1-n1cccc1)NCc1ccccc1Br = NO
41. O=C(NNC(=O)c1ccc(-n2cncn2)c([N+](=O)[O-])c1)c1ccccc1 = NO
42. COc1ccc(CCNC(=O)CCc2c(C)nc3c(c(C)nn3-c3ccc(C)c(C)c3)c2C)c(OC)c1OC = NO

Entry source: PubChem BioAssay AID485364
